B1: Azoarcus group I ribozyme (parent)
chain: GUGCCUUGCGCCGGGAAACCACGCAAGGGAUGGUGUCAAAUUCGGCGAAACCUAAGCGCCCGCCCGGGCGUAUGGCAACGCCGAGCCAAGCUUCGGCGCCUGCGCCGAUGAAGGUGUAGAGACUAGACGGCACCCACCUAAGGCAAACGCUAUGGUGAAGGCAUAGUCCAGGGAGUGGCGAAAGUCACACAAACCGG

variants of: B1; assay: reverse-splicing fitness (ratio to wild type); higher = more active; in vitro selection; Mg2+ level not given
Listed next: entries and their corresponding reverse-splicing fitness.
// no unit string in output, number only

Record excerpt, results attached:
C82G A120C C150A	0.0228
C82U A111U A120G A145U U176G	0.0045

The variant A120G A145U C150A U176G showed reverse-splicing fitness equal to 0.00673

The variant C82G A111G A120C C169U U176A showed reverse-splicing fitness equal to 0.0138

The variant C82A A111G A145C C169A showed reverse-splicing fitness equal to 0.0076

The variant C82A A111C A120U C169U U176C showed reverse-splicing fitness equal to 0.00626

The variant C82G A111C A120C A145C C150A C169A U176C showed reverse-splicing fitness equal to 0.00933

The variant C82G A111C A120U C150A showed reverse-splicing fitness equal to 0.00807
